# System: OVCAR-8 ovarian
# Method: NCI tumour cell line growth inhibition, 48 h
Reported metric: TGI

INSERT INTO assay_data (compound, result) VALUES
  ('CN(C)CCn1nc2c3c(c(C(=O)NCCCN(C)CCCNC(=O)c4ccc5c6c(nn5CCN(C)C)-c5ccccc5Nc46)ccc31)Nc1ccccc1-2', '2.97 µM'),
  ('O=[N+]([O-])O', '> 100 µM'),
  ('CCCCNCC(O)c1cc2c(Cl)cc(Cl)cc2c2cc(C(F)(F)F)ccc12 (stereo unspecified)', '3.86 µM'),
  ('COc1ccc2c(c1)[n+]([O-])c(-c1c(Cl)cccc1Cl)c(N)[n+]2[O-]', '> 100 µM'),
  ('OC1CCN(c2c3ccccc3nc3ccccc23)CC1', '79 µM'),
  ('S=C(/C=C1\SC(=Nc2ccccc2)C(=Nc2ccccc2)N1c1ccccc1)Nc1ccccc1', '> 100 µM'),
  ('COc1ccccc1N1C(=O)/C(=C\c2cc(OC)c(OC)c(OC)c2)SC1c1ccccc1 (stereo unspecified)', '> 100 µM'),
  ('c1ccc(CSc2nc(N3CCCCC3)c3cn[nH]c3n2)cc1', '74.3 µM'),
  ('COc1cc2cccc(N=Cc3ccccc3Cl)c2cc1OC', '> 100 µM'),
  ('C/C(=N\NC(=O)Nc1ccccc1Cl)c1ccc(O)cc1', '> 100 µM'),
  ('COc1cc2cc3c4c(cc(OC)c(OC)c4c2cc1OC)CCN3', '> 100 µM');

###

# System: CAKI-1 renal
# Method: NCI tumour cell line growth inhibition, 48 h; in the data active = GI50 below about 0.43 µM; inactive = the rest
Labels: active, inactive

INSERT INTO results (compound, label) VALUES
  ('COc1ccc(C2CC(c3cc(Cl)c(C)cc3O)=NN2c2ccc(S(N)(=O)=O)cc2)cc1OC (stereo unspecified)', 'inactive'),
  ('O=C(CCl)Nc1ccc2c(c1)C(=O)c1ccccc1C2=O', 'inactive'),
  ('O=C(NCCCCNC(=O)OCc1ccc2c(Cl)cc(Cl)c(O)c2n1)OCc1ccc2c(Cl)cc(Cl)c(O)c2n1', 'inactive'),
  ('COC1=CC(c2ccc[nH]2)=N/C1=C\c1[nH]c(C)c(C(=O)CCCCC(=O)NCc2ccccc2)c1C', 'inactive'),
  ('NCCOc1ncccc1/C=C1\c2ccccc2-c2ccc(F)cc21', 'inactive'),
  ('COc1cc(-c2n[nH]nc2-c2ccc3c(c2)OCCO3)cc(OC)c1OC', 'active'),
  ('C=C(C)C(=O)Oc1ccc(N=Nc2ccc(C)cc2)ccc1=O', 'inactive'),
  ('CNc1ccc(C(=O)CC(O)CCC(C)C2OC(=O)CC(O)CC(=O)CC(O)CC(O)CC(O)CC(O)CC3(O)CC(O)C(C(=O)NCCN(C)C)C(CC(OC4OC(C)C(O)C(NC(=O)CN5CCN(CCO)CC5)C4O)/C=C/C=C/C=C/C=C\C=C/C=C/C=C/C2C)O3)cc1 (stereo unspecified)', 'active'),
  ('C=Cc1ccccc1 (tested in a mixture with another compound)', 'inactive'),
  ('[O-]c1ccccc1/C=N/c1nccs1.[O-]c1ccccc1/C=N/c1nccs1.[O]=[U+2]=[O]', 'inactive'),
  ('COc1cc(/C=N/Nc2ncnc3[nH]ncc23)ccc1O', 'inactive');

###

# Test system: HOP-92 NSCLC
# Method: NCI tumour cell line growth inhibition, 48 h
Reported metric: TGI

INSERT INTO measurements (molecule, result) VALUES
  ('CC(=O)OCC1OC(Sc2nc(-c3ccc(Cl)cc3)c(C#N)c(=O)n2C2OC(COC(C)=O)C(OC(C)=O)C(OC(C)=O)C2OC(C)=O)C(OC(C)=O)C(OC(C)=O)C1OC(C)=O (stereo unspecified)', '9.15 µM'),
  ('N#CCCN(CCC#N)CCN(CCN(CCC#N)CCC#N)CCN(CCC#N)CCC#N', '> 100 µM'),
  ('COc1cc(/C=N\O)cc(/C=N/O)c1O', '79.5 µM'),
  ('CC(C)(C)c1ccc(C(=O)Nc2sc3c(c2C#N)CCC(=O)C3)cc1', '4.76 µM'),
  ('COc1cc2c(c(OC)c1OC)-c1cccc(=O)cc1C(NC(C)=O)CC2 (stereo unspecified)', '4.92 µM'),
  ('Cc1ccc(C2(c3ccc(C)cc3)SC(=C(C#N)C#N)c3ccccc32)cc1', '> 100 µM');

###

Each record here notes measured TGI.
# System: SK-OV-3 ovarian
# Method: NCI tumour cell line growth inhibition, 48 h
Reported metric: TGI

INSERT INTO results (compound, reported_metric, result) VALUES
  ('COc1cc(Nc2cnc3cc(N)ccc3n2)cc(OC)c1OC', 'TGI', '> 100 µM'),
  ('COc1cc(C(=O)/C=C/c2ccc(OCCCCCC[P+](c3ccccc3)(c3ccccc3)c3ccccc3)cc2)cc(OC)c1OC', 'TGI', '2.7 µM'),
  ('O=C(OC1CC(n2cc(F)c(=O)[nH]c2=O)OC1CSC(=O)c1ccccc1)c1ccccc1 (centres undefined)', 'TGI', '> 100 µM'),
  ('Cc1cc(NN)nc2n[nH]c(N)c12', 'TGI', '> 100 µM'),
  ('CC(=O)N1CCc2[nH]c3ccccc3c2CC1', 'TGI', '> 100 µM'),
  ('COc1ccc(-c2cc(-c3ccccc3)nc(/N=C\c3ccccc3)n2)c(O)c1', 'TGI', '> 100 µM'),
  ('O=C(N/N=C(/COc1ccccc1Cl)N=Cc1cccnc1)c1ccncc1', 'TGI', '> 100 µM'),
  ('N#C/C(=N/Nc1nc[nH]c1C(N)=O)C(=O)Nc1ccccc1', 'TGI', '> 100 µM'),
  ('COC(=O)/C(C#N)=C(\Nc1ccccc1)N1CCCC1', 'TGI', '> 100 µM'),
  ('COc1ccc(C2CC(c3cc(Cl)c(C)cc3O)=NN2c2ccc(S(N)(=O)=O)cc2)cc1OC (centres undefined)', 'TGI', '38.3 µM'),
  ('CCOc1ccccc1NC(=O)CC1Sc2ccccc2NC1=O (centres undefined)', 'TGI', '> 100 µM'),
  ('COc1cccc(C2c3cc4c(cc3OC(NNc3ccccc3)C2C)OCO4)c1O (centres undefined)', 'TGI', '58.4 µM'),
  ('CC(C)CC(C(N)=O)C(=O)NC(Cc1ccccc1)NC(=O)CNC(=O)C(C)NC(=O)C(N)Cc1ccc(O)cc1 (centres undefined)', 'TGI', '> 100 µM'),
  ('Cc1cc(-c2ncc(-c3cccnc3)cc2/C=C/c2ccccc2)cnc1-c1cccnc1', 'TGI', '> 100 µM');

###

This listing pairs molecules with measured TGI.
# Tested on: HCC-2998 colon
# Method: NCI tumour cell line growth inhibition, 48 h
Reported metric: TGI

INSERT INTO results (molecule, reported_metric, result) VALUES
  ('NC(N)=N/N=C(/CC1OC(=O)c2ccccc21)c1ccc2ccccc2c1 (stereo unspecified)', 'TGI', '31.1 µM'),
  ('O=C(c1ccccc1)C(C(=O)c1ccccc1)c1nc2ccccc2sc1=O', 'TGI', '> 25 µM'),
  ('COc1ccc(/C=C/c2nnc(/C=C/c3ccc(OC)c(OC)c3)o2)cc1OC', 'TGI', '> 100 µM'),
  ('COc1cc(-c2n[nH]nc2-c2ccc3c(c2)OCCO3)cc(OC)c1OC', 'TGI', '17.5 µM'),
  ('N#Cc1nn(C(N)=O)c(N)c1C#N', 'TGI', '> 100 µM'),
  ('N#C/C(=N/Nc1nc[nH]c1C(N)=O)C(=O)Nc1ccccc1', 'TGI', '> 100 µM');

###

Reported values of TGI for individual entries
# Tested on: M19-MEL melanoma
# Method: NCI tumour cell line growth inhibition, 48 h
Reported metric: TGI

INSERT INTO assay_data (compound, target_desc, reported_metric, result) VALUES
  ('COC(=O)C(C(=O)C(=O)Nc1nc2ccc([N+](=O)[O-])cc2s1)c1nc2ccc(Cl)cc2[nH]c1=O (centres undefined)', 'M19-MEL melanoma', 'TGI', '> 100 µM'),
  ('[O-]c1ccccc1/C=N/c1nccs1.[O-]c1ccccc1/C=N/c1nccs1.[O]=[U+2]=[O]', 'M19-MEL melanoma', 'TGI', '> 100 µM'),
  ('COc1ccc2c(c1)[n+]([O-])c(-c1c(Cl)cccc1Cl)c(N)[n+]2[O-]', 'M19-MEL melanoma', 'TGI', '> 100 µM'),
  ('CCOC(=O)COc1ccc(OCC(=O)OCC)c2c1C(=O)CCCC2=O', 'M19-MEL melanoma', 'TGI', '> 100 µM'),
  ('CC[C@@]1(O)C[C@H](OC2CC(N(C)C)C(OC3CC(O)C(OC4CC(O)C(O)C(C)O4)C(C)O3)C(C)O2)c2c(cc3c(c2O)C(=O)c2c(O)ccc(O)c2C3=O)[C@H]1C(=O)OC (some centres undefined)', 'M19-MEL melanoma', 'TGI', '0.21 µM'),
  ('C=Cc1ccccc1 (tested in a mixture with another compound)', 'M19-MEL melanoma', 'TGI', '> 75 µg/mL'),
  ('N=c1oc2c(O)c(O)ccc2cc1C(N)=O', 'M19-MEL melanoma', 'TGI', '44.8 µM'),
  ('CCOc1nc(OCC)nc(-c2cccn2-c2ccccc2)n1', 'M19-MEL melanoma', 'TGI', '> 100 µM'),
  ('COc1cc2c(cc1OC)C1Cc3sccc3CN1CC2 (centres undefined)', 'M19-MEL melanoma', 'TGI', '> 100 µM');

FYI, the data here is from PubChem BioAssay (NCI).
